All values here come from patent US20170189524A1.

The entries below come with measured EC50 values attached.
assayed target: T1, g2 IL-20 (fusion protein of human IL-20 fused C-terminally to Gaussia luciferase) (human, UniProt Q9NYY1 25-176)
T1 construct: order of the parts inferred from 'fused; C-terminally (g2 IL-20) to Gaussia luciferase'; the wording is ambiguous; also called GLuc-IL-20; not shown: Gaussia luciferase
T1 sequence (looked up): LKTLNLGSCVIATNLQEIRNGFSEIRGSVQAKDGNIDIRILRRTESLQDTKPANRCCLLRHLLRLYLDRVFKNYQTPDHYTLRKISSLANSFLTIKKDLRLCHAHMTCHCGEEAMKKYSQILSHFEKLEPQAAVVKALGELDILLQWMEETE
experiment notes: GLuc-sandwich ELISA, fusion protein captured by anti-GLuc antibody, serial dilution of MAB
Please make sure the unit comes right after the number.

Guide cases for EC50, answers given:
• antibody 7D1 (antibody, human IgG1, lambda, V domains shown, IgG1, lambda; also called MAb 7D1) VH: EVQLVASGGDFIQPGRSLRLSCAASGFKFDDYAMFWVRQVPGRGLEWVSGISWSSDKMAYVDSVKGRFTISRDNAKNTLYLQMNNLRPDDTAFYYCAKGGFSSVWNYFDFWGQGTLVTVSS VL: QSVLTQPPSASGTPGQTVIISCSGTTSNIGSNTVSWYRQLPGAAPKLLIFTYNQRPSGVPDRFSGSKSGTSASLAISGLQSDDEADYYCAVWDDALGGWVFGGGTKLTVLG = 0.0271 mg/L
• antibody 20A10 (antibody, human IgG4, kappa, V domains shown, Recombinant human-derived antibody; also called MAb 20A10; 20A0) VH: QVQLVQSGAEVKKPGSSVKVSCKTSGGTFSTSTLSWVRQAPGQGLEWLGGMIPILSRTTYAQKFQGRLTITADEPTSTSYMELSSLKSEDTAVYYCATEGEVSAAHNYYYGMDVWGQGTTVTVSS VL: DIVLTQSPLYLPVTPGEPASISCRSSQSLLHGNGHNYLDWYLQKPGQSPQLLIYLGSNRASGVPDRFSGSGSGTDFTLKISRVEAEDVGVYYCMQTLHTVFTFGPGTRVDIKR = 0.021 mg/L
• antibody 2A11 (antibody, IgG1, V domains shown, IgG1, lambda; also called MAb 2A11) VH: QVHLVQSGAEVKKPGSSVKVSCKASGGTFNNFPMSWVRQAPGRGLEWMAGIIPVFGSANYAQQFHGRVTISADISTSTVSMELNDLKSEDTGVYYCAISGDEDNWIMNFWGQGTLVTVSS VL: QSLLTQPPSVSGAPGQRVTISCTGSSSNIGAGYDVHWYQQVPGTAPKLLIYGNRNRPSGVPDRFSGSKSGTSASLAITGLQAEDEADYYCQSYDSSLSGHAVFGGGTKVTVLR = 0.0065 mg/L

Continue with the next binder.
Input antibody 6E11 (antibody, IgG1, V domains shown, IgG1; also called MAb 6E11) VH: QVQLVQSGAEVKKPGSSVKVSCKASGGTFRNYAINWVRQAPRQGLEWMGSLVPMFTSPTYAQKFRGRVTISADESTATSSMELTSLTSEDTAVYFCSADGYKGGLFYGMNVWGQGTTVTVSS VL: DIVLTQSPESLAVSLGERATINCKSSQSVLYSSNSKNYLAWFQQKPGQPPKLLIYWASTRESGVPDRFSGSGSGTDFTLTITSLQAEDVAVYYCHQYHTLPRTFGHGTKVEIKR , output reported EC50.
0.347 mg/L
